Biological target: T1, human PD-1 (#PD1-H82E4, AcroBiosystems) (human, UniProt Q15116 25-167)
T1 construct: bought
T1 sequence (Q15116 25-167 limits assumed): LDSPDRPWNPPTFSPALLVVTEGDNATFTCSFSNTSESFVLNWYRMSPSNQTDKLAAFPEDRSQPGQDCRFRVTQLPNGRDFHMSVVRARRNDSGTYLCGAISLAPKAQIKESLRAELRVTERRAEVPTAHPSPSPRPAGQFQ
Test: SPR, PD-1 on captured IgG1
MEASURED ENDPOINT: kon (M⁻¹ s⁻¹)
One number for each entry, in M⁻¹ s⁻¹.

KWH245 (antibody, human IgG1, V domains shown, human IgG1) VH: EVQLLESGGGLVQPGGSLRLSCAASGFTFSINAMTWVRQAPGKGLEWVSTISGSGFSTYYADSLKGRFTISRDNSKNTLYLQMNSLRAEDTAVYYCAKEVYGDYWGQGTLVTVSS VL: RSVLTQPPSASGTPGQRVSISCSGASSNIGSQSVFTYQQLPGTAPKLLIYSNNQRPSGVPDRFSGSKSGTSASLAISGLRSEDEADYYCAAWDDSLSIWVFGGGTKLTVL: 1.67e+06
SSR010 (antibody, human IgG1, V domains shown, human IgG1) VH: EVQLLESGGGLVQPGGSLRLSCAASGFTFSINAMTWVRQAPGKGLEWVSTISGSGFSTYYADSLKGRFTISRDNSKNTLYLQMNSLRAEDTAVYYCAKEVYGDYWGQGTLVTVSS VL: RSVLTQPPSASGTPGQRVSISCSGASSNVGSQSVFWYQQLPGTAPKLLIYSNNQRPSGVPDRFSGSKSGTSASLAISGLRSEDEADYYCAAWDDSLSIWVFGGGTKLTVL: 2.6e+06

Continue with the binder presented below.
Record GZZ692 (antibody, human IgG1, V domains shown, human IgG1) VH: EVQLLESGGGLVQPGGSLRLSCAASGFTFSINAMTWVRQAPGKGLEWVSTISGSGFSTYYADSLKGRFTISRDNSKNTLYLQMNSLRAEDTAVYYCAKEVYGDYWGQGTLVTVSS VL: RSVLTQPPSASGTPGQRVSISCSGASSNIGSQSVFWYQQLPGTAPKLLGYSNNQRPSGVPDRFSGSKSGTSASLAISGLRSEDEADYYCAAWDDSLSIWVFGGGTKLTVL . Reported kon: 148000
